biological target: Vitamin D3 receptor (Homo sapiens); experiment: Inhibitors of the vitamin D receptor (VDR): qHTS; settings: VDR-SRC2-3 peptide fluorescence polarization, 2 h; active compounds read low; for max response, negative = inhibition: % is set by controls: 0 for no effect and ±100 for the full control effect
Screen size: about 400,000 compounds; about 3,700 (0.93%) were called active. Not shown: some 3% with an inconclusive outcome. Shown is part of a subset that was picked to be rich in actives.
Assay endpoint: max response, negative = inhibition (%)
Report the value in % with no unit label.

Short answer for CC(=NNC(=O)c1ccc2nc[nH]c2c1)c1ccc(Br)cc1 : max response, negative = inhibition was -21.3

Short answer for CCOc1ccc(NC(=O)C2CCN(S(=O)(=O)c3cc(-c4noc(C)n4)ccc3C)CC2)cc1 : max response, negative = inhibition was 15.5

Short answer for Cc1ccc(C(=O)NC(=S)NCc2cccnc2)cc1 : max response, negative = inhibition was -6.42

Short answer for COc1cc(NC(=O)c2noc3c2CSc2ccccc2-3)cc(OC)c1OC : max response, negative = inhibition was 1.93

Short answer for Cc1ccc(C)c(NC(=S)NCC(c2cccnc2)N2CCOCC2)c1 (configuration not stated) : max response, negative = inhibition was -7.85

Short answer for CCOC(=O)c1ccc(CN(Cc2ccccc2)S(=O)(=O)c2ccc(Cl)cc2)cc1 : max response, negative = inhibition was 9.71

Short answer for Cc1ccc(CN2C(=O)SC(Nc3ccccc3)C2=O)cc1 (configuration not stated) : max response, negative = inhibition was -7.63

Short answer for O=C(CC1N=C2c3ccccc3N=C(SCc3cccc(Cl)c3)N2C1=O)NCc1ccc2c(c1)OCO2 (configuration not stated) : max response, negative = inhibition was 13.3

Short answer for Cc1ccc(-c2nc3ccccn3c2Nc2ccc(F)cc2)o1 : max response, negative = inhibition was -13.1

Short answer for CC/C(O)=N\S(=O)(=O)c1ccc(N=NN(C)C)cc1 : max response, negative = inhibition was 15.8

Short answer for COCCn1c(=O)c(-c2cc(F)cc(F)c2)nc2cnc(N3CCNCC3)nc21 : max response, negative = inhibition was -11.9

Short answer for CCC(C(=O)Nc1ccc(C(C)C)cc1)c1ccccc1 (configuration not stated) : max response, negative = inhibition was -16.3

Short answer for COc1cc(C(=O)N2CCN(c3ccc(Nc4ccc(C)cc4)nn3)CC2)cc(OC)c1OC : max response, negative = inhibition was 13.1

Short answer for CCCn1c2ccccc2c2cnn(CC(=O)NCCCOC(C)C)c(=O)c21 : max response, negative = inhibition was 4.17

Short answer for O=C(c1cc(-c2ccc(O)cc2)on1)N1CCOCC1 : max response, negative = inhibition was 4.52

Short answer for COc1ccccc1CNC(=O)c1ccc(NC(=O)N2CC(C)Sc3ccccc32)cc1 (configuration not stated) : max response, negative = inhibition was -3.93

Short answer for Cc1cc(-c2ccc(C)c(S(=O)(=O)N3c4ccccc4CC3C)c2)on1 (configuration not stated) : max response, negative = inhibition was 9.78

Short answer for CC(C)CC(=O)NC(=S)Nc1cc(C(=O)O)ccc1Cl : max response, negative = inhibition was -4.96

Short answer for COc1ccc(C2C(=O)N(C3CCCCC3)CC(=O)N2Cc2ccccc2Cl)cc1OC (configuration not stated) : max response, negative = inhibition was 5.49

Short answer for CC(CNC(=O)Cn1cnc2c(OCc3ccccc3)ncnc21)c1ccccc1 (configuration not stated) : max response, negative = inhibition was -7.14

Short answer for COC(=O)c1c(C)oc2ccc(N(C(=O)Oc3ccccc3)S(=O)(=O)c3ccccc3)cc12 : max response, negative = inhibition was 2.55

Short answer for COc1ccc(Cc2n[nH]c(=S)n2NC(=O)Nc2ccc(C)cc2)cc1 : max response, negative = inhibition was -6.31

----------
Answer each item with its documented max response, negative = inhibition.
target: Vitamin D3 receptor (Homo sapiens); assay: Inhibitors of the vitamin D receptor (VDR): qHTS; settings: VDR-SRC2-3 peptide fluorescence polarization, 2 h; active compounds read low; for max response, negative = inhibition: % is set by controls: 0 for no effect and ±100 for the full control effect
In all, about 400,000 compounds went through this assay and about 3,700 (0.93%) were called active. Inconclusive results (about 3%) are left out. The sample holds actives, similar compounds and a random draw of the others, so the mix is not that of the screen.
Report the value in % with no unit label.

Short answer for COc1ccc(CNC(=O)C2=Cc3cccc(OC)c3OC2)cc1OC : max response, negative = inhibition was -2.19

Short answer for CC(=O)c1ccc(NS(=O)(=O)c2ccc(-c3cc(C)no3)s2)cc1 : max response, negative = inhibition was -0.0795

Short answer for COc1ccc(Cn2c(=O)n(-c3ccccc3C)c(=O)c3c4c(sc32)CN(C(C)=O)CC4)cc1 : max response, negative = inhibition was 7.19

Short answer for CCOc1ccccc1NC(=O)C1=C(C)Nc2ncnn2C1c1ccc(NC(C)=O)cc1 (stereo not given) : max response, negative = inhibition was 6.42

Short answer for COc1ccccc1NC(=O)[C@H](COCc1ccccc1)NC(=O)OC(C)(C)C : max response, negative = inhibition was 6.86

Short answer for Cc1cc(NC(=O)C2CCC(CNS(=O)(=O)c3ccc(Br)s3)CC2)ccc1Br (stereo not given) : max response, negative = inhibition was -18

Short answer for Cc1c(C(=O)Nc2cccc(Cl)c2)oc2ccc(S(=O)(=O)N3CCOCC3)cc12 : max response, negative = inhibition was -9.71

Short answer for CC(C)[C@@H](NC(=O)OC(C)(C)C)C(=O)NCC1CCC(C(=O)N[C@@H](Cc2ccccc2)C(=O)O)CC1 (stereo not given in full) : max response, negative = inhibition was -5.18

Short answer for Cc1cc(C)cc(NS(=O)(=O)c2cc3c(cc2C)NC(=O)CO3)c1 : max response, negative = inhibition was -6.49

Short answer for O=C(Nc1cccc(-c2nc3ccccc3o2)c1)c1cccc(Br)c1 : max response, negative = inhibition was 4.46

----------
Molecular target: Vitamin D3 receptor (Homo sapiens)
Assay: Inhibitors of the vitamin D receptor (VDR): qHTS; for max response, negative = inhibition: % is set by controls: 0 for no effect and ±100 for the full control effect
Settings: VDR-SRC2-3 peptide fluorescence polarization, 2 h; active compounds read low
Source text: The vitamin D receptor (VDR) is a ligand-activated transcription factor and is partially responsible for the regulation of the endocrine system. […] In a collaboration between the University of Wisconsin, Milwaukee and the NIH Chemical Genomics Center (NCGC) a HTS-compatible enzymatic assay was developed. The assay uses fluorescence polarization as its read-out to measure the inhibition between VDR and coregulator peptide SRC2-3 exerted by small molecules. […]
Out of some 400,000 compounds screened, about 3,700 (0.93%) were called active. About 3% were inconclusive and are not listed. This is one part of a sample in which actives are shown more often than they occur.
Answer each item with its documented max response, negative = inhibition.
Report the value in % with no unit label.

Short answer for CC(=O)Nc1ccc(S(=O)(=O)N2N=NC3C2C2CC4C3(CN(C(=O)OC(C)(C)C)S4(=O)=O)O2)cc1 (stereo not given) : max response, negative = inhibition was -28.4

Short answer for CCOC(=O)c1cc2c(=O)n3ccccc3nc2n(CC2CCCO2)c1=NC(=O)c1ccc(C(C)(C)C)cc1 (stereo not given) : max response, negative = inhibition was -4.97

Short answer for CCOc1ccc(NC(=O)c2c(NCc3cccc(OC)c3OC)sc3c2CCC3)cc1 : max response, negative = inhibition was -0.323

Short answer for Cc1cccc(OCCCC(=O)Nc2sc3c(c2C(N)=O)CCC(C)C3)c1 (stereo not given) : max response, negative = inhibition was 0.722

Short answer for Cc1ccc(NC(=O)C(=O)NCC(c2cccnc2)N2CCOCC2)cc1 (stereo not given) : max response, negative = inhibition was 7.68

----------
Answer each item with its documented Potency.
biological target: Vitamin D3 receptor (Homo sapiens) (UniProt P11473); assay: Inhibitors of the vitamin D receptor (VDR): qHTS; conditions: VDR-SRC2-3 peptide fluorescence polarization, 2 h; note: potency is the fitted concentration of half-maximal effect
Sequence (P11473 whole entry, looked up): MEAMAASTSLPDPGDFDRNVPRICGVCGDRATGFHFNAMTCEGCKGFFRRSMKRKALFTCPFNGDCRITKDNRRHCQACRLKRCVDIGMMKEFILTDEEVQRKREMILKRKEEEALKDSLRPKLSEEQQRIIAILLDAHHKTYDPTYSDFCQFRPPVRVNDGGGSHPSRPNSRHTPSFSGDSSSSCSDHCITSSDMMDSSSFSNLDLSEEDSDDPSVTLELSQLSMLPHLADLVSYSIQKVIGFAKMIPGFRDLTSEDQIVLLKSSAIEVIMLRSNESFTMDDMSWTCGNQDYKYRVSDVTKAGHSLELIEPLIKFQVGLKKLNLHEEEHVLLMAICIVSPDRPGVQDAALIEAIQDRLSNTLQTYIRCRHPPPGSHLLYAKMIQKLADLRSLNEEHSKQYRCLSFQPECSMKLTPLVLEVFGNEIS
Screen size: about 400,000 compounds; about 3,700 (0.93%) were called active. Roughly 3% stayed inconclusive and do not appear here. The list comes from a sample in which actives are over-represented; it also holds close analogues and randomly drawn compounds.

Short answer for CCN(CCCNC(=O)c1ccc2c(c1)NC(=O)CN2C)c1cccc(C)c1 : Potency was 79.4 µM (active)

Short answer for CCCCN1C(=O)/C(=C(/C#N)C(N)=O)c2ccccc21 : Potency was 50.1 µM (active)

Short answer for O=[N+]([O-])c1cccc2ncccc12 : Potency was 12.6 µM (active)

Short answer for Cc1ccc(-n2nc(-c3ccco3)cc2C(=O)NCc2cccnc2)cc1 : Potency was 70.8 µM (active)

Short answer for CCn1c(SC)nc(O)c(C(c2ccc(OC)c(O)c2)c2c(O)nc(SC)n(CC)c2=O)c1=O : Potency was 35.5 µM (active)

Short answer for FC(F)(F)C1CCCN(c2nsc3ccccc23)C1 (stereo unspecified) : Potency was 20 µM (active)

----------
molecular target: Vitamin D3 receptor (Homo sapiens) (UniProt P11473); experiment: Inhibitors of the vitamin D receptor (VDR): qHTS; settings: VDR-SRC2-3 peptide fluorescence polarization, 2 h; active compounds read low; for max response, negative = inhibition: % is set by controls: 0 for no effect and ±100 for the full control effect
Among all 400,000 compounds or so, about 3,700 (0.93%) were called active. Not shown: some 3% with an inconclusive outcome. Many of the other results were omitted from the sample, so actives are more common in it than they were.
Answer each item with its documented max response, negative = inhibition.
Report the value in % with no unit label.

Short answer for COc1ccc(NC(=O)C(=O)NCc2ccco2)cc1 : max response, negative = inhibition was -7.31

Short answer for O=C(Nc1ccc2ccccc2c1[N+](=O)[O-])c1ccccc1 : max response, negative = inhibition was -2.31

Short answer for CCc1cc2c(cc3c(=O)n(CC(=O)NCCc4ccc(OC)c(OC)c4)ncn32)s1 : max response, negative = inhibition was 14.2

Short answer for Clc1cccc(-c2nc3nc4ccccc4nc3n2Cc2ccco2)c1 : max response, negative = inhibition was 4.83

Short answer for COc1ccc(N(CC(=O)Nc2cc(OC)ccc2OC)S(=O)(=O)c2c(C)noc2C)cc1 : max response, negative = inhibition was 5.52

Short answer for COc1ccc(CC(=O)Nc2ccc(-c3nc4ccccc4s3)c(C)c2)cc1 : max response, negative = inhibition was -0.795

Short answer for Cc1cccc(C2CC(=O)Oc3c2c(=O)n(C)c2ccccc32)c1 (configuration not stated) : max response, negative = inhibition was 0.823

Short answer for COc1cccc(C(=O)CC(=O)C(=O)Nc2ccc([N+](=O)[O-])cc2C)c1 : max response, negative = inhibition was -6.66

Short answer for CCOc1ccc(CC(=O)NCCc2csc3nc(-c4ccccc4F)nn23)cc1 : max response, negative = inhibition was 13.3

Short answer for Cc1ccc(-c2cc(-c3coc4ccccc4c3=O)c3c(n2)-c2cc(Cl)ccc2OC3)cc1 : max response, negative = inhibition was 2.47

Short answer for COCCn1c(CCC(=O)Nc2cc(C)ccc2C)nc2cccnc21 : max response, negative = inhibition was 7.95

Short answer for CCn1cc(C(=O)NCc2ccc(C)cc2)c(=O)c2cc(S(=O)(=O)N3CCc4ccccc4C3)ccc21 : max response, negative = inhibition was -10.3

Short answer for COC(=O)c1nc(NC(=O)c2ccccc2)n[nH]1 : max response, negative = inhibition was -20

Short answer for CCCC(=O)Nc1ccc(NC(=O)c2sc3ccccc3c2Cl)cc1 : max response, negative = inhibition was 1.71

Short answer for CC(Sc1nnc2c(n1)C1CCC2(C)C1(C)C)C(=O)Nc1ccccc1 (configuration not stated) : max response, negative = inhibition was -21.5

Short answer for Cc1cccc(OP(=O)(Nc2c(C)n(C)n(-c3ccccc3)c2=O)Oc2cccc(C)c2)c1 : max response, negative = inhibition was 10.3

Short answer for CC(C)(C)SCCNC(=O)c1cccc([N+](=O)[O-])c1 : max response, negative = inhibition was -16.4

Short answer for CCOc1cc(CNC(=O)c2sc3ncnc(N(C)C4CCCCC4)c3c2C)ccc1OC : max response, negative = inhibition was 5.17

Short answer for Cc1cn([C@H]2CC(F)[C@@H](CO)O2)c(=O)[nH]c1=O (some centres not stated) : max response, negative = inhibition was -2.1

Short answer for COc1ccc(CCN2C(=O)C(C)=C(C)C2=O)cc1OC : max response, negative = inhibition was -14.3

Short answer for Cc1ccc(C)c(Nc2nnc(-c3ccc(C)c(S(=O)(=O)N4CCCCC4)c3)c3ccccc23)c1 : max response, negative = inhibition was 2.71

Short answer for COc1cc(Cl)c(C)cc1NC(=O)CCc1nc2cccnc2n1Cc1cccs1 : max response, negative = inhibition was 3.57
